Assay: collision cross section of modified peptide (TIMS, N2, iRT-aligned); higher = larger / more extended gas-phase ion
Conditions: charge state: 2; modification: hydroxyisobutyryl
Quick list: collision cross section per entry.
assay_metric: collision cross section (Å²)

[
  {
    "residue_string": "AAQASDLEKIHLDEK [_AAQASDLEK(hydroxyisobutyryl)IHLDEK_]",
    "assay_metric": "collision cross section",
    "observed_result": 466.52
  },
  {
    "residue_string": "GTITVSAQELKDNR [_GTITVSAQELK(hydroxyisobutyryl)DNR_]",
    "assay_metric": "collision cross section",
    "observed_result": 423.58
  },
  {
    "residue_string": "LEEVTGKLQVAR [_LEEVTGK(hydroxyisobutyryl)LQVAR_]",
    "assay_metric": "collision cross section",
    "observed_result": 399.92
  },
  {
    "residue_string": "DTPTSAGPNSFNKGK [_DTPTSAGPNSFNK(hydroxyisobutyryl)GK_]",
    "assay_metric": "collision cross section",
    "observed_result": 416.06
  }
]
